assay: Solubility of moxifloxacin HCl in the presence of sodium chloride; assay type: physicochemical; details: sodium chloride solution, 5 °C, saline or isotonic, thermodynamic from solid, NaCl 0.3 % (w/v)
Where a name gives a salt, the structure may show the parent alone.
result_type: solubility thermodynamic (µg/mL)
Expressed in µg/mL, but write only the number.

Which solubility thermodynamic is reported for this compound? COc1c(N2C[C@@H]3CCCN[C@@H]3C2)c(F)cc2c(=O)c(C(=O)O)cn(C3CC3)c12 [moxifloxacin HCl]
5000

====

assay: Solubility of moxifloxacin HCl in the presence of sodium chloride; type: physicochemical; details: sodium chloride solution, 5 °C, saline or isotonic, thermodynamic from solid, NaCl 0.2 % (w/v)
Where a name gives a salt, the structure may show the parent alone.
result_type: solubility thermodynamic
A bare number is not enough; add the unit after it.

# input compound: COc1c(N2C[C@@H]3CCCN[C@@H]3C2)c(F)cc2c(=O)c(C(=O)O)cn(C3CC3)c12 [moxifloxacin HCl] ; wanted: its solubility thermodynamic
7000 µg/mL
